Give TGI for every item shown.
Test system: NCI/ADR-RES ovarian
assay-remarks: NCI tumour cell line growth inhibition, 48 h

Given CCN(CC)CCS(=O)c1c2cc(OC)ccc2nc2ccc(OC)cc12 (stereo unspecified) , state its recorded TGI.
52.6 µM

Given O=C1/C(=C\c2cccc(Oc3ccccc3)c2)SC(c2ccccc2)N1c1ccc(Cl)cc1 (stereo unspecified) , state its recorded TGI.
> 100 µM

Given COC(=O)[C@H](Cc1ccccc1)NC(=O)N1CCN(C(=O)N[C@@H](Cc2ccccc2)C(=O)OC)CCN(C(=O)N[C@@H](Cc2ccccc2)C(=O)OC)CC1 , state its recorded TGI.
> 100 µM

Given NC1=NC(OCC2(CO)CCC2)C=C(NCC2(CO)CCC2)N1 (stereo unspecified) , state its recorded TGI.
> 100 µM

Given COc1cccc(-c2nc3c(C(=O)NCCN(C)C)cccc3[nH]2)c1 , state its recorded TGI.
44.1 µM

Given CC(=O)c1ccc2c(c1)oc(=O)n2CCN1CCCCC1 , state its recorded TGI.
> 100 µM

---

Test system: DMS 273 small cell lung
assay-remarks: NCI tumour cell line growth inhibition, 48 h
readout-name: TGI

// lookup TGI | system=DMS 273 small cell lung | key= COc1cccc(-c2nc3c(C(=O)NCCN(C)C)cccc3[nH]2)c1
39.7 µM

// lookup TGI | system=DMS 273 small cell lung | key= N#CC12C3C4CC5C6C4C1C6C(O)(C53)N2Cc1ccccc1 (stereo not drawn)
> 100 µM

// lookup TGI | system=DMS 273 small cell lung | key= CCOC(=O)C(=O)Nc1c(N(CC)CC)n2ccccc2nc1=O
> 100 µM

// lookup TGI | system=DMS 273 small cell lung | key= COC(=O)N/N=C/c1oc(-c2cccc([N+](=O)[O-])c2)c(-c2cccc([N+](=O)[O-])c2)c1[N+](=O)[O-]
> 100 µM

// lookup TGI | system=DMS 273 small cell lung | key= CCCCc1c2c(nc3c1CCC/C3=C\c1ccccc1)C(=O)C(CN(C)C)CC2 (stereo not drawn)
41.1 µM

// lookup TGI | system=DMS 273 small cell lung | key= ON=C1CCC(c2ccccc2)CC1 (stereo not drawn)
> 100 µM

// lookup TGI | system=DMS 273 small cell lung | key= COc1ccc2ccc([Se]c3ccc4ccc(OC)cc4c3)cc2c1
> 100 µM

// lookup TGI | system=DMS 273 small cell lung | key= COC(=O)c1c(CC#N)cccc1CC#N
> 100 µM

---

System: DMS 114 small cell lung
assay-remarks: NCI tumour cell line growth inhibition, 48 h
readout-name: TGI

Given O=C1OC2(c3ccccc3Oc3ccccc32)c2ccccc21 , state its recorded TGI.
> 100 µM

Given COc1ccc(/C=C2/C[N+](C)(C)C/C(=C/c3ccc(OC)cc3)C2=O)cc1 , state its recorded TGI.
> 69.3 µM

Given COc1cccc(-c2nc3c(C(=O)NCCN(C)C)cccc3[nH]2)c1 , state its recorded TGI.
30.7 µM

Given Cc1cc(C)nc(Nc2nc3ccc([N+](=O)[O-])cc3[nH]2)n1 , state its recorded TGI.
> 100 µM

Given C[C@]12CCC(=O)C(O)=C1CC[C@@H]1[C@@H]2CC[C@]2(C)C(=O)CC[C@@H]12 , state its recorded TGI.
> 100 µM

---

Tested on: A498 renal
assay-remarks: NCI tumour cell line growth inhibition, 48 h; in the data active = GI50 below about 0.43 µM; inactive = the rest
# valid calls are yes (1) = active, no (0) = inactive; nothing else

What call does the record list for CCN(CC)CCCCCCCNc1c2ccc(Cl)cc2nc2ccc(OC)cc12 ?
no (0)

What call does the record list for COc1ccc(-c2nc(-c3ccccc3)c(-c3ccccc3)n2C2CC2)cc1OC1CCCC1 ?
no (0)

What call does the record list for N=C(N)CCCCCCCCC(=N)N ?
no (0)

What call does the record list for CCSc1nc(N=Cc2cccs2)c2cn[nH]c2n1 ?
no (0)

What call does the record list for O=C(Nc1ncc(Cc2ccccc2Cl)s1)c1ccc2c(c1)OCCO2 ?
yes (1)

---

Give TGI for every item shown.
Tested on: LOX IMVI melanoma
assay-remarks: NCI tumour cell line growth inhibition, 48 h

Given COc1cc(-c2coc3c(OC)c(OC4OC(CO)C(O)C(O)C4O)c(OC)cc3c2=O)cc(OC)c1C (stereo unspecified) , state its recorded TGI.
> 31.2 µM

Given C=CCOCn1ccc(=O)[nH]c1=O , state its recorded TGI.
> 100 µM

Given C=C1C(=O)O[C@H]2[C@H]1CC/C(Cn1cc(-c3ccccc3)nn1)=C\CC[C@@]1(C)O[C@@H]21 , state its recorded TGI.
1.69 µM

Given C=C1C(=O)C23CC1C[C@H](OC(C)=O)C2C1(C)C(OC(C)=O)C[C@H](O)C(C)(C)[C@H]1C(O)[C@@H]3OC(C)=O (stereo partly specified) , state its recorded TGI.
30.3 µM

Given N#CC12C3C4CC5C6C4C1C6C(O)(C53)N2Cc1ccccc1 (stereo unspecified) , state its recorded TGI.
> 100 µM

Given COC(=O)c1nc(NC#N)[nH]c(=O)c1C , state its recorded TGI.
> 100 µM

Given C=C1C(=O)OC2C1C(OC(=O)/C(C)=C/C)CC1(C)C(=O)CCC(=C)C21 (stereo unspecified) , state its recorded TGI.
13.2 µM

Given C[Si](C)(C)OC1c2[nH]c3ccccc3c2CN2C(=O)CCC12 (stereo unspecified) , state its recorded TGI.
> 100 µM

Given O=C1C=Cc2ccccc2/C1=C/c1[nH]c(=O)[nH]c1O , state its recorded TGI.
> 100 µM

Given CCOC(=O)CC1=CSC2=NCCN12 , state its recorded TGI.
> 100 µM

Given CCOC(=O)c1nc2ccc(C(F)(F)F)cc2nc1Oc1ccc(F)cc1 , state its recorded TGI.
> 100 µM

---

Test system: MOLT-4 leukemia
assay-remarks: NCI tumour cell line growth inhibition, 48 h
readout-name: TGI

Given COc1cc2c(/C=C3/C(=O)Nc4ccccc43)c(Cl)n(Cc3ccccc3[N+](=O)[O-])c2cc1C , state its recorded TGI.
70.3 µM

Given CC(C)(C)N1NC1C1NN1C(C)(C)C (configuration not stated) , state its recorded TGI.
> 100 µM

Given CC1OC(O[C@H]2CC[C@]3(C)[C@H]4CC=C5[C@@H]6[C@@H](C)[C@H](C)CC[C@]6(C(=O)O)CC[C@@]5(C(=O)O)[C@]4(C)CC[C@H]3C2(C)C)C(O)C(O)C1O (some centres not stated) , state its recorded TGI.
> 75 µM

Given NC1CC(=O)c2cc(Br)sc21 (configuration not stated) , state its recorded TGI.
> 100 µM

Given N=C1C(=N)c2ccccc2-c2ccccc21 , state its recorded TGI.
1.61 µM

Given O=C(O)C1CC(c2ccccc2)=NN1c1ccccc1 (configuration not stated) , state its recorded TGI.
> 100 µM

Given CC1(C)OCC(CO)(Nc2nc(N3CC3)nc(N3CC3)n2)CO1 , state its recorded TGI.
19 µM

Given Cc1cc2c(s1)C(=O)c1sccc1C2=O , state its recorded TGI.
> 22.4 µM

Given C=CCOCn1ccc(=O)[nH]c1=O , state its recorded TGI.
> 100 µM

Given C/C=C(\C)C(=O)O[C@H]1C=CC(=O)O[C@H]1CNC(=O)[C@H](C)O , state its recorded TGI.
46.6 µM

Given c1ccc2sc(C3(N4CCCCC4)CCCC3)cc2c1 , state its recorded TGI.
19.8 µM

Given COc1c(O)ccc2c1CN1CCc3cc4c(cc3C1C2)OCO4 (configuration not stated) , state its recorded TGI.
> 100 µM

Given C=C1C(=O)O[C@H]2[C@H]1CC/C(Cn1cc(-c3ccccc3)nn1)=C\CC[C@@]1(C)O[C@@H]21 , state its recorded TGI.
3.53 µM

Given CC1=NN(C(=O)Cc2ccccc2)C(=O)/C1=C\C=C\c1ccccc1 , state its recorded TGI.
> 100 µM

Given CCC(=O)COc1ccc(NC(NC(=O)C(C(F)(F)F)C(F)(F)F)(C(F)(F)F)C(F)(F)F)cc1 , state its recorded TGI.
44.8 µM

Given CCSc1nc(N=Cc2cccs2)c2cn[nH]c2n1 , state its recorded TGI.
> 100 µM

Given CC1NC(/C(=C/c2ccccc2O)NC(=O)c2ccccc2)OC1=O (configuration not stated) , state its recorded TGI.
> 50 µM

Given O=C(Nc1ccc(Cl)cc1)c1cc2ccccc2cc1O , state its recorded TGI.
> 100 µM

Given O=C(Cc1ccccc1)c1ccc2[nH]c(=O)oc2c1 , state its recorded TGI.
> 100 µM

Given CCC1(N=[N+]=[N-])C(=O)Nc2cc(C)ccc2C1=O (configuration not stated) , state its recorded TGI.
> 100 µM

Given CCOC(=O)c1nc2ccc(C(F)(F)F)cc2nc1Oc1ccc(F)cc1 , state its recorded TGI.
> 100 µM

Given COC[n+]1cc2cc(OC)c(OC)cc2c2ccc3cc(OC)c(OC)cc3c21 , state its recorded TGI.
> 100 µM
